Sourced from ChEMBL document CHEMBL4689842

# Test system: HEK-293T
# procedure details: Multiplex assay against HEK293T
# Assay type: toxicity, cell-based
# recorded conditions: human, 48 h, 10 µM, compound concentration 10 uM, replicate 2
Criterion: Population Hoechst High Intensity Objects (%) meeting or surpassing 5%. Met: 1.0. Not met: 0.0.

>  <compound>
CCc1nn(CCCN2CCN(c3cccc(Cl)c3)CC2)c(=O)n1CCOc1ccccc1.Cl [NEFAZODONE HYDROCHLORIDE]

>  <group label>
1.0

$$$$
>  <compound>
Cc1ccc2c(c1)c1c(n2CCc2ccc(C)nc2)CCN(C)C1 [LATREPIRDINE]

>  <group label>
1.0

$$$$
>  <compound>
CCOC(=O)Nc1cc(-c2ccc(C)c(NS(C)(=O)=O)c2)nn2c(C)nnc12

>  <group label>
0.0

$$$$
>  <compound>
COc1ccc(-c2ccc3ncc4c(c3c2)n(-c2ccc(N3CCNCC3)c(C(F)(F)F)c2)c(=O)n4C)cn1.O=C(O)/C=C\C(=O)O

>  <group label>
1.0

$$$$
>  <compound>
CC(C)c1noc(N2CCC(COc3ccc(-c4ccc(S(C)(=O)=O)cc4)nc3)CC2)n1

>  <group label>
0.0

$$$$

INPUT: Answer whether Population Hoechst High Intensity Objects (%) of `CC(C)NC(=O)N1CC[C@H](NC2=Nc3cc(F)ccc3N(CC(F)F)c3ccc(Cl)cc32)C1` is greater than or equal to 5%.
OUTPUT: 0.0

INPUT: Another compound to check: Cc1cccc(CN2CCN(C(c3ccccc3)c3ccc(Cl)cc3)CC2)c1.Cl.Cl (stereo not drawn)
OUTPUT: 0.0

###

# Test system: Fibroblast
# procedure details: Multiplex assay against human fibroblast
# Type: toxicity, cell-based
# recorded conditions: 12 h, 10 µM, compound concentration 10 uM, replicate 2
# key: entry, value: Population Mitochondria Different-Phenotype (%)
Give just the number in %; leave the unit off.

Guide cases for Population Mitochondria Different-Phenotype (%), answers given:
>  <compound>
CCc1nn(CCCN2CCN(c3cccc(Cl)c3)CC2)c(=O)n1CCOc1ccccc1.Cl [NEFAZODONE HYDROCHLORIDE]

>  <experimental value>
97

$$$$
>  <compound>
C=CC(=O)Nc1cccc(Oc2nc(Nc3ccc(N4CCN(C)CC4)cc3OC)ncc2Cl)c1

>  <experimental value>
4

$$$$
>  <compound>
Cc1nc(N2CC[C@H](O)C2)ncc1-c1cc(C(F)(F)F)cc2[nH]ncc12

>  <experimental value>
15

$$$$

INPUT: // returns reported Population Mitochondria Different-Phenotype (%) for input `CC(C)Oc1ccccc1C(=O)Nc1ccccc1C(=O)Nc1cccc(S(=O)(=O)C(F)(F)F)c1`
OUTPUT: 92

INPUT: Entry `CCc1ccc(OCc2ccccc2C(=O)Nc2ccc3nc(C)cc(N)c3c2)cc1.Cl` please
OUTPUT: 100

INPUT: Now consider CC(C)(C)NC[C@H](O)COc1nsnc1N1CCOCC1 [TIMOLOL] .
OUTPUT: 7

###

Recorded Total Cell Count, one value per entry.
# System: Fibroblast
# procedure details: Multiplex assay against human fibroblast
# Format: toxicity, cell-based
# recorded conditions: 48 h, 1 µM, compound concentration 1 uM, replicate 2

>  <compound>
O=C(c1cc2c(cc1F)OC(c1ccc(F)cc1)(c1ccc(Cl)cc1Cl)O2)N1CCOCC1 (stereo unspecified)

>  <tested on>
Fibroblast

>  <Total Cell Count>
90

$$$$

INPUT: Could you share which Total Cell Count value was measured for `CNC(=O)Nc1ccc(-c2nc(N3CC4CCC(C3)O4)c3cnn(C4CCC5(CC4)OCCO5)c3n2)cc1` ?
OUTPUT: 88

INPUT: Okay, and CCCSc1nc(N[C@@H]2C[C@H]2c2ccc(F)c(F)c2)c2nnn([C@@H]3C[C@H](OCCO)[C@@H](O)[C@H]3O)c2n1 [TICAGRELOR] ?
OUTPUT: 88

INPUT: Again, but for CCc1nn(CCCN2CCN(c3cccc(Cl)c3)CC2)c(=O)n1CCOc1ccccc1.Cl [NEFAZODONE HYDROCHLORIDE]
OUTPUT: 127

INPUT: Try this compound too: `CC(C)NC(=O)N1CC[C@H](NC2=Nc3cc(F)ccc3N(CC(F)F)c3ccc(Cl)cc32)C1`
OUTPUT: 126

INPUT: Next entry: Cc1cccc(CN2CCN(C(c3ccccc3)c3ccc(Cl)cc3)CC2)c1.Cl.Cl (stereo unspecified)
OUTPUT: 124

###

# Test system: Fibroblast
# procedure details: Multiplex assay against human fibroblast
# Assay type: toxicity, cell-based
# recorded conditions: 12 h, 10 µM, compound concentration 10 uM, replicate 1
Strictly below 30% in Population Mitotic Cells (%): Fulfilled. Otherwise: Not fulfilled.

>  <compound>
COc1cc(Nc2nccc(-c3cnn4nc(OC)ccc34)n2)cc(C(F)(F)F)c1

>  <group label>
Not fulfilled

$$$$

INPUT: For CC1=C(C(=O)Nc2cc3cn[nH]c3cc2F)C(c2ccc(C(F)(F)F)cc2)CC(=O)N1 (stereo unspecified) , is the recorded Population Mitotic Cells (%) below the cut-off of 30%?
OUTPUT: Not fulfilled

INPUT: Next entry: `CN1CCN(Cc2ccc(Nc3ncc(Cl)c(Nc4ccccc4S(=O)(=O)N(C)C)n3)cc2)CC1`
OUTPUT: Fulfilled

INPUT: Another compound: Cc1ccccc1C(c1ccccc1C)N1C2CCC1CC(O)(c1ccccc1)C2 (stereo unspecified)
OUTPUT: Not fulfilled

INPUT: Record: CCc1nn(CCCN2CCN(c3cccc(Cl)c3)CC2)c(=O)n1CCOc1ccccc1.Cl [NEFAZODONE HYDROCHLORIDE]
OUTPUT: Fulfilled

INPUT: Now this one: `CC(C)NC(=O)N1CC[C@H](NC2=Nc3cc(F)ccc3N(CC(F)F)c3ccc(Cl)cc32)C1`
OUTPUT: Fulfilled

INPUT: Now the compound `O=c1cc(N2CCOCC2)oc2c(-c3cccc4c3sc3ccccc34)cccc12`
OUTPUT: Not fulfilled

INPUT: Note, next up: `C=CC(=O)Nc1cccc(Sc2nc(Nc3ccc(N4CCN(C)CC4)cc3)ncc2Cl)c1`
OUTPUT: Fulfilled

###

# System: Fibroblast
# procedure details: Multiplex assay against human fibroblast
# Type: toxicity, cell-based
# recorded conditions: 12 h, 1 µM, compound concentration 1 uM, replicate 2
Below, each of the compounds is paired with its reported Population Apoptotic (%) value.
Number only, in %; omit the unit.

Solved entries (count: 3):
>  <line notation>
C=CC(=O)Nc1cccc(Oc2nc(Nc3ccc(N4CCN(C)CC4)cc3OC)ncc2Cl)c1

>  <Population Apoptotic (%)>
60

$$$$
>  <line notation>
CCOC(=O)Nc1cc(-c2ccc(C)c(NS(C)(=O)=O)c2)nn2c(C)nnc12

>  <Population Apoptotic (%)>
60

$$$$
>  <line notation>
CN1CCN(Cc2ccc(Nc3ncc(Cl)c(Nc4ccccc4S(=O)(=O)N(C)C)n3)cc2)CC1

>  <Population Apoptotic (%)>
100

$$$$

INPUT: # get_value(readout='Population Apoptotic (%)', item= `C=CC(=O)Nc1ccc2[nH]c(=O)n(C3CCN(Cc4ccc(-c5nc6cc[nH]c(=O)c6cc5-c5ccccc5)cc4)CC3)c2c1` )
OUTPUT: 33

###

# System: HEK-293T
# procedure details: Multiplex assay against HEK293T
# Type: toxicity, cell-based
# recorded conditions: human, 24 h, 10 µM, compound concentration 10 uM, replicate 2
quantity measured: Population Mitochondria Different-Phenotype (%)
Provide the reading as a plain figure in %.

For orientation, consider the following solved cases.
>  <molecule>
CCCSc1nc(N[C@@H]2C[C@H]2c2ccc(F)c(F)c2)c2nnn([C@@H]3C[C@H](OCCO)[C@@H](O)[C@H]3O)c2n1

>  <readout unit>
%

>  <experimental value>
95

$$$$
>  <molecule>
CC(C)Oc1ccccc1C(=O)Nc1ccccc1C(=O)Nc1cccc(S(=O)(=O)C(F)(F)F)c1

>  <readout unit>
%

>  <experimental value>
84

$$$$
>  <molecule>
CC(C)OC(=O)N1CCC(Oc2ncnc3c2cnn3-c2ccc(S(C)(=O)=O)cc2F)CC1

>  <readout unit>
%

>  <experimental value>
22

$$$$

INPUT: Look up Population Mitochondria Different-Phenotype (%): `CNC(=O)Nc1ccc2c(c1)[C@@]1(CC2)OC(=O)N(CC(=O)N(Cc2ccc(F)cc2)[C@@H](C)C(F)(F)F)C1=O`
OUTPUT: 2

INPUT: Queued: `C=CC(=O)Nc1ccc2[nH]c(=O)n(C3CCN(Cc4ccc(-c5nc6cc[nH]c(=O)c6cc5-c5ccccc5)cc4)CC3)c2c1`
OUTPUT: 43

INPUT: // repeat for `COC(=O)C1=C(C)NC(C)=C(C(=O)OCCCN2CCC(c3ccccc3)(c3ccccc3)CC2)[C@H]1c1cccc([N+](=O)[O-])c1` and report
OUTPUT: 0

INPUT: Also CCc1nn(CCCN2CCN(c3cccc(Cl)c3)CC2)c(=O)n1CCOc1ccccc1.Cl [NEFAZODONE HYDROCHLORIDE] ?
OUTPUT: 100
